test system: UO-31 renal; test: NCI tumour cell line growth inhibition, 48 h
assay-endpoint: GI50

compound	GI50
O=C(c1ccccc1)c1c(NCC(O)CN2CCCC2)n(Cc2ccccc2)c(=O)n(Cc2ccccc2)c1=O (stereo not drawn)	18.8 µM
CC1=NN(C(=O)c2ccccc2O)C(=O)/C1=C/c1ccc([N+](=O)[O-])cc1	0.358 µM

Consider now this further compound.
Prompt: // map C[n+]1c(/C=C\C=C\N2CCCCC2)sc2ccccc21 to recorded GI50 (system: UO-31 renal)
Completion: 13.5 µM

====

system: COLO 205 colon; assay: NCI tumour cell line growth inhibition, 48 h
assay-endpoint: TGI

Below, each entry is followed by its recorded TGI result.
compound	TGI
O=C(CP(c1ccccc1)c1ccccc1)c1cccc(C(=O)CP(c2ccccc2)c2ccccc2)c1	> 100 µM
Cc1ccc(C)c(NC(=O)C(=O)CC(=O)C2CCOC2=O)c1 (stereo not drawn)	> 100 µM

Prompt: What does the record list as TGI for O=C1NC(N/N=C\C(O)C(O)C(O)CO)=N/C1=C/c1ccccc1 (stereo not drawn) ?
Completion: > 100 µM
